# TEST_TARGET: Cdk2/cyclin A binary complex (human, UniProt P24941 1-298; P20248 173-432)
# METHOD_NOTES: single-molecule fluorescence anisotropy (smFA); BODIPY-labelled single-Cys p27, not phosphorylated, free or in complex with Cdk2/cyclin A, diluted to pM; 20 mM HEPES pH 7.5, 300 mM NaCl, 40 µM TROLOX; average anisotropy of free and complexed p27 compared
# TEST_SETTINGS: both partners purified
METRIC: binding result

{"BINDER": "p27-C54 (Cys-less full-length p27-Y89F with E54C, labelled with BODIPY-FL) (natural protein, BODIPY-FL on Cys 54, p27Kip1 (p27), human, residues 1-198 (full length), Y89F, Cys-less background, Glu 54 to Cys; also called p27-54C; source: E. coli, purified (Ni-NTA, His-tag removed with thrombin, reverse-phase HPLC over C4); labelled with BODIPY-FL) MSNVRVSNGSPSLERMDARQAEHPKPSAARNLFGPVDHEELTRDLEKHARDMECASQRKWNFDFQNHKPLEGKYEWQEVEKGSLPEFYFRPPRPPKGASKVPAQESQDVSGSRPAAPLIGAPANSEDTHLVDPKTDPSDSQTGLAEQSAGIRKRPATDDSSTQNKRANRTEENVSDGSPNAGSVEQTPKKPGLRRRQT", "RESULT": "binds"}
{"BINDER": "p27-C29 (full-length p27-Y89F with the single native Cys 29, labelled with BODIPY-FL) (natural protein, BODIPY-FL on Cys 29, p27Kip1 (p27), human, residues 1-198 (full length), Y89F; Cys 29 kept, the other three native Cys replaced; also called p27-29C; source: E. coli, purified (Ni-NTA, His-tag removed with thrombin, reverse-phase HPLC over C4); labelled with BODIPY-FL) MSNVRVSNGSPSLERMDARQAEHPKPSACRNLFGPVDHEELTRDLEKHARDMEEASQRKWNFDFQNHKPLEGKYEWQEVEKGSLPEFYFRPPRPPKGASKVPAQESQDVSGSRPAAPLIGAPANSEDTHLVDPKTDPSDSQTGLAEQSAGIRKRPATDDSSTQNKRANRTEENVSDGSPNAGSVEQTPKKPGLRRRQT", "RESULT": "binds"}

Data origin, for the record: paper PMC6459857
